Below, each entry is listed alongside its reported IC50.
# Test system: HEK293
# Method: Cytotoxicity against HEK293 cells after 48 hrs by MTT assay
# Format: cell-based
# Condition label: Homo sapiens, HEK293, 48 h
I only need the number, in µM, no unit after it.

Please review the following examples before continuing.
CCN(CC)CCCn1c(N)c(-c2nc3ccccc3n2C)c2nc(C#N)c(C#N)nc21
7.24
CN(C)CCCn1c(N)c(-c2nc3ccccc3s2)c2nc(C#N)c(C#N)nc21
4.29
CCN(CC)CCCCn1c(-c2c(N)n(C)c3nc(C#N)c(C#N)nc23)nc2ccccc21
8.82
CN(C)CCCCn1c(N)c(-c2nc3ccccc3o2)c2nc(C#N)c(C#N)nc21
6.24
CN1CCN(CCCn2c(N)c(-c3nc4ccccc4[nH]3)c3nc(C#N)c(C#N)nc32)CC1
6.26
CCN(CC)CCCCn1c(N)c(-c2nc3cc(Cl)ccc3[nH]2)c2nc(C#N)c(C#N)nc21
3.86

IC50 of `CCN(CC)CCn1c(N)c(-c2nc3ccccc3[nH]2)c2nc(C#N)c(C#N)nc21` , assay on HEK293, is 12.2

IC50 of `N#Cc1nc2c(-c3nc4ccccc4[nH]3)c(N)n(CCN3CCOCC3)c2nc1C#N` , assay on HEK293, is 22.3

IC50 of `CN(C)CCCCn1c(N)c(-c2nc3ccccc3[nH]2)c2nc(C#N)c(C#N)nc21` , assay on HEK293, is 4.16

IC50 of `CCN(CC)CCCCn1c(N)c(-c2nc3ccccc3n2C)c2nc(C#N)c(C#N)nc21` , assay on HEK293, is 3.16

IC50 of `CN(C)CCn1c(N)c(-c2nc3ccccc3[nH]2)c2nc(C#N)c(C#N)nc21` , assay on HEK293, is 9.73

IC50 of `N#Cc1nc2c(-c3nc4ccccc4[nH]3)c(N)n(CCN3CCCC3)c2nc1C#N` , assay on HEK293, is 18.3

IC50 of COc1cc([C@@H]2c3cc4c(cc3[C@@H](O[C@@H]3O[C@@H]5CO[C@@H](C)O[C@H]5[C@H](O)[C@H]3O)[C@H]3COC(=O)[C@H]23)OCO4)cc(OC)c1O [ETOPOSIDE] , assay on HEK293, is 0.69

IC50 of `CN(C)CCn1c(N)c(-c2nc3ccccc3s2)c2nc(C#N)c(C#N)nc21` , assay on HEK293, is 11.8

IC50 of `CN(C)CCCn1c(N)c(-c2nc3cc(Cl)ccc3[nH]2)c2nc(C#N)c(C#N)nc21` , assay on HEK293, is 11.7

IC50 of `CN(C)CCCn1c(N)c(-c2nc3ccccc3o2)c2nc(C#N)c(C#N)nc21` , assay on HEK293, is 5.88

IC50 of `N#Cc1nc2c(-c3nc4ccccc4[nH]3)c(N)n(CCCN3CCCCC3)c2nc1C#N` , assay on HEK293, is 6.72
